- Tested on: YT (IL-2 2.5 ng/mL)
- protocol_summary: percent inhibition of viability; higher = more inhibition;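 also: normalised to DMSO-only wells as negative and benzethonium chloride as positive control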
- recorded_conditions: 72 h; 1 nM
quantity: percent inhibition of viability (%)
Number only, in %; omit the unit.

>>> quantitative_readout("Cc1c(N)nc([C@H](CC(N)=O)NC[C@H](N)C(N)=O)nc1C(=O)N[C@H](C(=O)N[C@H](C)[C@@H](O)[C@H](C)C(=O)N[C@H](C(=O)NCCc1nc(-c2nc(C(=O)NCCC[S+](C)C)cs2)cs1)[C@@H](C)O)[C@@H](OC1OC(CO)C(O)C(O)C1OC1OC(CO)C(O)C(OC(N)=O)C1O)c1cnc[nH]1 (stereo not given in full) [Bleomycin] (max concentration tested 10000 nM)")
-2.74
>>> quantitative_readout("C[C@]12C=CC(=O)C=C1CC[C@@H]1[C@@H]2[C@@H](O)C[C@@]2(C)[C@H]1CC[C@]2(O)C(=O)CO [Prednisolone] (max concentration tested 10000 nM)")
-0.96
>>> quantitative_readout("c1ccc(Cn2c(-c3ccc(OC[C@H](C4CCNCC4)n4c(-c5ccccc5)nc5ccccc54)cc3)nc3ccccc32)cc1 [deltarasin] (max concentration tested 10000 nM)")
-7.64

Supply percent inhibition of viability value. Item: CO[C@H](C(=O)[C@@H](O)[C@@H](C)O)[C@@H]1Cc2cc3cc(O[C@H]4C[C@@H](O[C@@H]5C[C@@H](O)[C@H](O)[C@@H](C)O5)[C@H](O)[C@@H](C)O4)c(C)c(O)c3c(O)c2C(=O)[C@H]1O[C@H]1C[C@@H](O[C@@H]2C[C@@H](O)[C@@H](O[C@@H]3C[C@](C)(O)[C@H](O)[C@@H](C)O3)[C@@H](C)O2)[C@H](O)[C@@H](C)O1 [Plicamycin] (max concentration tested 10000 nM) -0.6

Supply percent inhibition of viability value. Item: Cn1c(=O)n(-c2ccc(C(C)(C)C#N)cc2)c2c3cc(-c4cnc5ccccc5c4)ccc3ncc21 [Dactolisib] (max concentration tested 1000 nM) -5.11
